Known melting point of a selection of molecules

Some solved cases for reference:
# molecule, melting point
records = [
    ("COc1ccc(CSc2nnc(-c3ccnc(N)c3)o2)cc1F", "166 to 167 °C"),
    ("CC1(C)CCC(C)(C)c2cc3c(cc21)OCC3(C)c1cc(C=C(Br)Br)cs1 (centres undefined)", "124 °C"),
    ("O=C1Nc2ccccc2C(c2ccccc2)N1C1CCN(Cc2cccc(OC(F)(F)F)c2)CC1 (single isomer, unassigned; (+))", "195 to 198 °C"),
    ("CCN(CC)c1ccc(S(=O)(=O)N2CCCC2=S)cc1", "183 to 184 °C"),
    ("CCOC(=O)Cc1c(C)[nH]c2cc(F)c(OC)c(F)c12", "92.1 to 92.7 °C"),
    ("O=[N+]([O-])c1ccc2c(c1)NP(=O)(N(CCCl)CCCl)NC2 (centres undefined)", "168 to 170 °C"),
    ("CCN(CC)C(=O)c1cc2ccccc2c(-c2cccc(F)c2)n1", "92 °C"),
    ("COc1ccc(S(=O)(=O)C2(C(=O)O)CCN(CCOc3ccccc3)CC2)cc1", "235 °C"),
]

Record OCC1OC(n2cnc3c(NCC(c4ccc(F)cc4)c4ccc(F)cc4)ncnc32)C(O)C1O (centres undefined) , field melting point: 75 to 80 °C

====

Known melting point of a selection of molecules

Some solved cases for reference:
# molecule, result
records = [
    ("CCOCc1nc2c(N)nc3cc(OCc4cccc(N)c4)ccc3c2n1CC(C)C", "228 to 230 °C"),
    ("OC1CSC(Oc2cccc3ocnc23)C(O)C1O (stereo unspecified)", "172 °C"),
    ("COc1ncc(CS(=O)(=O)CC(=O)O)cc1[N+](=O)[O-]", "183 to 186 °C"),
    ("O=c1[nH]ccc2cc3cccnc3n12", "265 to 266 °C"),
    ("CCOC(=O)c1ncc2[nH]c3cccc(Oc4ccccc4)c3c2c1COC", "174 to 176 °C"),
]

Record Cc1noc(NS(=O)(=O)c2ccsc2C(=O)N(C)c2ccccc2)c1Br , field melting point: 51 to 55 °C

Record C/C=C/Cn1c(Oc2cc(C)cc(C)c2)c(CC)c(=O)[nH]c1=O , field melting point: 149 to 150 °C

Record CNS(=O)(=O)Cc1ccc(NC(=O)C(F)(F)F)c(Br)c1 , field melting point: 170 °C

Record CC1(C)CCC(C)(C)c2c(C(O)C#C[Si](C)(C)C)cc(-c3ccccc3)cc21 (stereo unspecified) , field melting point: 145 °C

Record COC(=O)C(c1ccccc1)(c1ccccc1)c1c[nH]c(C)n1 , field melting point: 136 °C

Record CC1(C)Oc2ccncc2C2OC21 (stereo unspecified) , field melting point: 208 to 210 °C

====

quantity_name: melting point

Some solved cases for reference:
# compound, quantity_name, result
data = [
    ("COc1cc2c(cc1OC)N(C)C(=O)CN=C2c1cccnc1", "melting point", "177 to 179 °C"),
    ("O=C(O)c1ccc(-c2nc(-c3ccc(Cl)s3)co2)cc1", "melting point", "300 °C"),
    ("CCOC(=O)C(Cc1ccc(OCCN2CCC(C)(C)c3cc(C(=NO)c4ccccc4)ccc32)cc1)OCC (centres undefined)", "melting point", "46 to 48 °C"),
]

Record Cc1ccc(CNc2nc(Cl)nc(Nc3ccc4[nH]c(=O)[nH]c4c3)n2)o1 , field melting point: 164 to 166 °C

Record O=C(Nc1ccc(C(F)(F)F)cc1)c1ccc(-c2nn(Cc3ccccc3)c3ccccc23)o1 , field melting point: 205 to 206 °C

Record CCOC(=O)Cc1ccc2c(c1)CC(NC(=O)OC)CC2 (centres undefined) , field melting point: 89 to 90 °C

Record Cc1ccc(C(=O)NCC(O)CO)cc1-n1c(C)cc(OCc2ccccc2CNC(=O)Nc2cc(C(C)(C)C)nn2-c2cccc(OCCO)c2)c(Cl)c1=O (centres undefined) , field melting point: 158 to 160 °C

Record COc1ccc(C2(c3ccc(-c4ccc(F)cc4)s3)N=C(N)N(C)C2=O)cc1C (centres undefined) , field melting point: 110 °C

Each recorded value in this set is attributed to a melting point compilation (Tetko et al.; mined from patent text by program, amines drawn as free bases though some values may be those of a salt).
